# credit: patent US20090253709A1

viability at 24 h, 100 µM by entry:
# experiment.summary: MTT assay in H1299 cells
# Assay type: cell-based
# experimental.context: human, H1299 cells (H1299/PhTERT-driven SEAP reporter system); H1299; compound concentration 100 μM; read-out: MTT (Inhibition μM ± SD)
Answer format: numeric, % implied, no suffix.

O=C(CN1CCNCC1)Nc1ccc2c(c1)C(=O)c1cc(NC(=O)CN3CCNCC3)ccc1C2=O [Compound 12]: 88
O=C(CCN1CCNCC1)Nc1ccc2c(c1)C(=O)c1cc(NC(=O)CCN3CCNCC3)ccc1C2=O [Compound 24]: 102
CCNCCC(=O)Nc1ccc2c(c1)C(=O)c1cc(NC(=O)CCNCC)ccc1C2=O [Compound 22]: 34
CN1CCN(CC(=O)Nc2ccc3c(c2)C(=O)c2cc(NC(=O)CN4CCN(C)CC4)ccc2C3=O)CC1 [Compound 11]: 37
CC(=O)Nc1ccc2c(c1)C(=O)c1cc(NC(C)=O)ccc1C2=O [Compound 26, 2,7-Bis(acetamido)anthraquinone]: 55

response.value for O=C(CN1CCCC1)Nc1ccc2c(c1)C(=O)c1cc(NC(=O)CN3CCCC3)ccc1C2=O [Compound 6] (field: viability at 24 h, 100 µM) = 23
